Biological target: Protein farnesyltransferase (Homo sapiens, UniProt P49354+P49356)
Assay: Inhibition of recombinant human FTase using dansylated peptide Dansyl-GCAIM as substrate by fluorescence-based assay
Format: protein-complex assay
Conditions: read-out: IC50
measurementLabel: IC50

Here are 2 compounds together with their reported answers.
[in] Return reported IC50; argument: `CCOC(=O)CN(CCSC)NC(=O)c1sc(SC(C)C)c(C#N)c1-c1ccc(Cl)cc1`
[out] > 50 µM

[in] Return reported IC50; argument: CCC(C)Sc1sc(C(=O)N[C@@H](CCSC)C(=O)OC)c(-c2ccc(Cl)cc2)c1C#N (stereo partly drawn)
[out] > 50 µM

Note: attention shifts to another entry.
[in] Return reported IC50; argument: `CC(C)Sc1sc(C(=O)NC23CC4CC(CC(C4)C2)C3)c(-c2ccc(Cl)cc2)c1C#N`
[out] > 50 µM

* * *

Assay: Inhibition of partially purified recombinant Trypanosoma brucei protein farnesyltransferase by fluorescence-based assay
Conditions: read-out: IC50
Below, each entry is listed alongside its reported pIC50.
# pIC50 is unitless: minus log10 of the molar concentration; print number only

[in] Return reported pIC50; argument: `CSCC[C@@H](C(=O)O)N(C)C(=O)c1sc(SC(C)C)c(C#N)c1-c1ccc(Cl)cc1`
[out] 5.48

* * *

Tested on: Trypanosoma brucei brucei
Experiment: Antiparasitic activity against bloodstream forms of Trypanosoma brucei brucei 93 after 72 hrs by resazurin assay
Type: functional, organism-based
Details: Trypanosoma brucei, 93, 72 h
Below, each entry is listed alongside its reported IC50.
Only the number, expressed in µM, is required.

[in] Return reported IC50; argument: `COC(=O)[C@H](CCSC)N(C)C(=O)c1sc(SC(C)C)c(C#N)c1-c1ccc(Cl)cc1`
[out] 8.1

[in] Return reported IC50; argument: CCC(C)Sc1sc(C(=O)N[C@@H](CCC(N)=O)C(=O)OC(C)(C)C)c(-c2ccc(Cl)cc2)c1C#N (some centres undefined)
[out] 8.5

[in] Return reported IC50; argument: `COC(=O)[C@H](CCSC)NC(=S)c1sc(SC(C)C)c(C#N)c1-c1ccc(Cl)cc1`
[out] 11

Note: attention shifts to another entry.
[in] Return reported IC50; argument: CCC(C)Sc1sc(C(=O)N[C@@H](CCSC)C(=O)OC)c(-c2ccc(Cl)cc2)c1C#N (some centres undefined)
[out] 11

* * *

Experiment: Inhibition of partially purified recombinant Trypanosoma brucei protein farnesyltransferase by fluorescence-based assay
Details: read-out: IC50
measurementLabel: IC50

Here are 3 compounds together with their reported answers.
[in] Return reported IC50; argument: `CSCCNNC(=O)c1sc(SC(C)C)c(C#N)c1-c1ccc(Cl)cc1`
[out] > 50 µM

[in] Return reported IC50; argument: `CCOC(=O)CN(CCSC)NC(=O)c1sc(SC(C)C)c(C#N)c1-c1ccc(Cl)cc1`
[out] > 50 µM

[in] Return reported IC50; argument: `CC(C)Sc1sc(C(=O)NC23CC4CC(CC(C4)C2)C3)c(-c2ccc(Cl)cc2)c1C#N`
[out] > 50 µM

Further cases:
[in] Return reported IC50; argument: `CSCCNC(=O)c1sc(SC(C)C)c(C#N)c1-c1ccc(Cl)cc1`
[out] > 50 µM

[in] Return reported IC50; argument: `CC(C)Sc1sc(C(=O)Nc2cccc3ccccc23)c(-c2ccc(Cl)cc2)c1C#N`
[out] > 50 µM

[in] Return reported IC50; argument: `CC(C)Sc1sc(C(=O)NCc2cccc3ccccc23)c(-c2ccc(Cl)cc2)c1C#N`
[out] > 50 µM

[in] Return reported IC50; argument: `COC(=O)[C@H](CCSC)NC(=O)c1sc(SC(C)C)c(C#N)c1-c1cc(O)c(O)c(O)c1`
[out] 3.6 µM

[in] Return reported IC50; argument: `COC(=O)[C@H](CCSC)NC(=O)c1sc(SC(C)C)c(C#N)c1-c1cccc(-c2ccccc2)c1`
[out] 19 µM

[in] Return reported IC50; argument: `COC(=O)[C@H](CCSC)NC(=O)c1sc(SC(C)C)c(C#N)c1-c1cccc2c1oc1ccccc12`
[out] > 50 µM

[in] Return reported IC50; argument: `CSCC[C@H](NC(=O)c1sc(SC(C)C)c(C#N)c1-c1cccc(-c2ccccc2)c1)C(=O)O`
[out] 0.042 µM

[in] Return reported IC50; argument: `COC(=O)[C@@H](CCSC)NC(=O)c1sc(SC(C)C)c(C#N)c1-c1ccc(Cl)cc1`
[out] 2.8 µM
